# System: HSC-2
# measurementNotes: Cytotoxicity against human HSC2 cells
# Format: functional
readoutType: CC50 (µM)

| compound | unitAbbreviation | numericResult |
| --- | --- | --- |
| Cc1ccc(C(=O)C(CO)CN(C)C)cc1 (stereo not given) | µM | 6.3 |
| N[C@@H](Cc1ccc(N(CCCl)CCCl)cc1)C(=O)O | µM | 35 |
| COc1ccc(C(=O)C(CO)CN(C)C)cc1 (stereo not given) | µM | 2.5 |
| C=C(CN(C)C)C(=O)c1ccc(C)cc1 | µM | 3.4 |
| CN(C)CC(CO)C(=O)c1ccccc1 (stereo not given) | µM | 5.2 |

====

# System: HSC-2
# measurementNotes: Cytotoxicity against human HSC2 cells
# Assay type: functional
readoutType: CC50 (µM)

| molecule | readoutType | numericResult |
| --- | --- | --- |
| CN(C)CC(CSCCO)C(=O)c1ccc([N+](=O)[O-])cc1 (configuration not stated) | CC50 | 165 |
| CN(C)CC(CO)C(=O)c1ccc(Cl)cc1 (configuration not stated) | CC50 | 6 |
| C=C(CN(C)C)C(=O)c1ccc([N+](=O)[O-])cc1 | CC50 | 8.2 |
| C=C(CN(C)C)C(=O)c1ccc(OC)cc1 | CC50 | 5.9 |
| CN(C)CC(CO)C(=O)c1ccc([N+](=O)[O-])cc1 (configuration not stated) | CC50 | 73 |
| C=C(CN(C)C)C(=O)c1ccccc1 | CC50 | 29 |
| C=C(CN(C)C)C(=O)c1ccc(Cl)cc1 | CC50 | 5.1 |

====

# Test system: SR
# measurementNotes: Cytotoxicity against human SR cells
# Assay type: cell-based
pIC50: −log10 of the molar value.

| compound | limitOperator | pIC50 |
| --- | --- | --- |
| C=C(CN(C)C)C(=O)c1ccc(Cl)cc1 | = | 5.40 |
| C=C(CN(C)C)C(=O)c1ccc(OC)cc1 | = | 4.84 |
| CN(C)CC(CO)C(=O)c1ccc(Cl)cc1 (stereo not given) | = | 6.20 |
| CN(C)CC(CSCCO)C(=O)c1ccc([N+](=O)[O-])cc1 (stereo not given) | < | 4.00 |
| C=C(CN(C)C)C(=O)c1ccccc1 | = | 6.26 |

====

# Tested on: HSC-4
# measurementNotes: Cytotoxicity against human HSC4 cells
# Assay type: functional
For each record, check the reported CC50: if it is below 6 µM write met, else write not met.

| molecule | assignedLabel |
| --- | --- |
| CN(C)CC(CO)C(=O)c1ccccc1 (configuration not stated) | not met |
| Cc1ccc(C(=O)C(CO)CN(C)C)cc1 (configuration not stated) | met |
| C=C(CN(C)C)C(=O)c1ccc([N+](=O)[O-])cc1 | not met |
| N[C@@H](Cc1ccc(N(CCCl)CCCl)cc1)C(=O)O [MELPHALAN] | not met |
| CN(C)CC(CO)C(=O)c1ccc([N+](=O)[O-])cc1 (configuration not stated) | not met |
| CN(C)CC(CO)C(=O)c1ccc(Cl)cc1 (configuration not stated) | not met |
